assay: Antiproliferative activity against human SW620 cells after 72 hrs by alamar blue assay; format: functional; conditions: SW-620, 72 h
Field: GI50. Provide a value for each of the compounds that follow.
Answer with a number only, understood to be in µM.

Query: Can you look up the measured GI50 of `CC(=O)Nc1cc(Nc2cc(NC3CC3)n3ncc(C#N)c3n2)ccc1C` for me?
Result: 0.1

Query: Return reported GI50; argument: `CC(=O)Nc1cccc(Nc2cc(NC3CC3)n3ncc(C#N)c3n2)c1`
Result: 0.7

Query: Give its GI50 value. Item: `CC(=O)Nc1cc(Nc2cc(NC3CC3)n3ncc(C#N)c3n2)ccc1N(C)CCN(C)C`
Result: 0.03

Query: Reported GI50 for `CC(=O)Nc1cc(Nc2cc(NC3CC3)n3ncc(C#N)c3n2)ccc1N(C)CCN` : what is it?
Result: 0.005
